From: patent US6472389B1

assayed_system: recombinant human secretory phospholipase A2 (Homo sapiens, UniProt P14555)
test_description: Inhibition test of human secretory phospholipase A2 (chromogenic assay, 96 well microtiterplate)
condition_description: sPLA2 50 ng/well, 40° C., 30 minutes, OD 405 nm, substrate 1,2-bis(heptanoylthio)-1,2-dideoxy-sn-glycero-3-phospholylcholine
outcome_measure: IC50 (nM)

Solved cases below.
compound="CCc1c(C(=O)C(N)=O)c2c(OCC(=O)OCc3ccccc3)cc(CN3CCOCC3)nn2c1Cc1ccccc1 [Compound I-30]" measured_number=4520
compound="CCc1c(C(=O)C(N)=O)c2c(OCC(=O)OC)cc(COc3ccc(OC)c(OC)c3)nn2c1Cc1ccccc1 [Compound I-47]" measured_number=618
compound="CCc1c(C(=O)C(N)=O)c2c(OCC(=O)O)cc(CSc3ccccc3)nn2c1Cc1ccccc1 [Compound I-58]" measured_number=9

[1] CCc1c(C(=O)C(N)=O)c2c(OCC(=O)OC)cc(COc3ccc(OC)cc3)nn2c1Cc1ccccc1 [Compound I-46]
[2] CSCc1cc(OCC(=O)O)c2c(C(=O)C(N)=O)c(C)c(Cc3ccccc3)n2n1 [Compound I-73]
# min-compare on IC50 between 1 and 2 Reply with the label of the item you choose. 2
(2: 19 nM, 1: 268 nM)

---

assayed_system: recombinant human secretory phospholipase A2 (Homo sapiens)
test_description: Inhibition test of human secretory phospholipase A2 (chromogenic assay, 96 well microtiterplate)
Type: biochemical
condition_description: sPLA2 50 ng/well, 40° C., 30 minutes, OD 405 nm, substrate 1,2-bis(heptanoylthio)-1,2-dideoxy-sn-glycero-3-phospholylcholine
outcome_measure: IC50 (nM)

Some solved cases for reference:
molecule="CCc1c(C(=O)C(N)=O)c2c(OCC(=O)OC)cc(C)nn2c1Cc1ccccc1-c1ccccc1 [Compound I-35]" outcome_measure=IC50 measured_number=111
molecule="CCc1c(C(=O)C(N)=O)c2c(OCC(=O)O)cc(CN3CCCC3)nn2c1Cc1ccccc1 [Compound I-59]" outcome_measure=IC50 measured_number=1080
molecule="CCc1c(C(=O)C(N)=O)c2c(OCC(=O)O)cc(C3CCCC3)nn2c1Cc1ccccc1 [Compound I-68]" outcome_measure=IC50 measured_number=25
molecule="CCCc1cc(OCC(=O)OC)c2c(C(=O)C(N)=O)c(CC)c(Cc3ccccc3)n2n1 [Compound I-9]" outcome_measure=IC50 measured_number=165

[I] CCc1c(C(=O)C(N)=O)c2c(OCC(=O)OC)cc(C(C)C)nn2c1Cc1ccccc1 [Compound I-10]
[II] Cc1cc(OCC(=O)O)c2c(C(=O)C(N)=O)c(C)c(Cc3ccccc3-c3ccc(F)cc3)n2n1 [Compound I-82]
[III] CCc1c(C(=O)C(N)=O)c2c(OCC(=O)O)cc(C)nn2c1Cc1ccccc1 [Compound I-5]
[IV] CCOC(=O)COc1cc(C)nn2c(Cc3ccccc3)c(C)c(C(=O)C(N)=O)c12 [Compound I-55]
I would appreciate it if you could sort these 4 molecules by IC50, starting from the smallest number. Answer format: the labels, in the requested order. III, IV, II, I
(III: 11 nM, IV: 56 nM, II: 93 nM, I: 296 nM)

[P] CCc1cc(OCC(=O)O)c2c(C(=O)C(N)=O)c(C)c(Cc3ccccc3)n2n1 [Compound I-70]
[Q] CCc1c(C(=O)C(N)=O)c2c(OCC(=O)OC)cc(COc3ccc(C)cc3)nn2c1Cc1ccccc1 [Compound I-48]
Input pair: P , Q . Output: entry with lower IC50. Reply briefly: the label of your chosen item. P

[P] Cc1c(C(=O)C(N)=O)c2c(OCC(=O)O)cc(Cc3ccccc3)nn2c1Cc1ccccc1 [Compound I-72]
[Q] CCc1c(C(=O)C(N)=O)c2c(OCC(=O)OC)cc(-c3ccc(OC)cc3)nn2c1Cc1ccccc1 [Compound I-34]
[R] CCc1c(C(=O)C(N)=O)c2c(OCC(=O)O)cc(CN3C(=O)CCC3=O)nn2c1Cc1ccccc1 [Compound I-79]
[S] CCc1c(C(=O)C(N)=O)c2c(OCC(=O)O)cc(-c3ccccc3)nn2c1Cc1ccccc1F [Compound I-25]
# desc sort on IC50 across 4 molecules List the labels, following the order given in the request. R, Q, P, S

[I] CCc1c(C(=O)C(N)=O)c2c(OCC(=O)OC)cc(CSc3ccccc3)nn2c1Cc1ccccc1 [Compound I-27]
[II] CCc1c(C(=O)C(N)=O)c2c(OCC(=O)O)cc(CN=[N+]=[N-])nn2c1Cc1ccccc1 [Compound I-80]
Could you kindly indicate whether I or II has the higher IC50 value? API: response body contains the label of the selected item. I

---

assayed_system: recombinant human secretory phospholipase A2 (Homo sapiens, UniProt P14555)
test_description: Inhibition test of human secretory phospholipase A2 (chromogenic assay, 96 well microtiterplate)
condition_description: sPLA2 50 ng/well, 40° C., 30 minutes, OD 405 nm, substrate 1,2-bis(heptanoylthio)-1,2-dideoxy-sn-glycero-3-phospholylcholine
outcome_measure: IC50 (nM)

[1] CCc1c(C(=O)C(N)=O)c2c(OCC(=O)O)cc(C(C)C)nn2c1Cc1ccccc1 [Compound I-20]
[2] Cc1cc(OCC(=O)OCCN2CCOCC2)c2c(C(=O)C(N)=O)c(C)c(Cc3ccccc3)n2n1 [Compound I-56]
[3] CCc1c(C(=O)C(N)=O)c2c(OCC(=O)OCc3ccccc3)cc(CN3CCN(C)CC3)nn2c1Cc1ccccc1 [Compound I-31]
[4] COC(=O)COc1cc(C)nn2c(Cc3ccccc3-c3ccc(F)cc3)c(C)c(C(=O)C(N)=O)c12 [Compound I-52]
In a descending ranking, list each entry from above by its IC50, from the largest value down to the smallest. The labels, placed in the requested order, form the answer. 3, 4, 2, 1

---

Here the recorded melting point is given for each entry.

mol=CCc1c(C(=O)C(N)=O)c2c(OCC(=O)O)cc(-c3ccc(OC)cc3)nn2c1Cc1ccccc1 result="248 to 250 °C (dec.)"

Data request, read-out melting point, for CCc1c(C(=O)C(N)=O)c2c(OCC(=O)OC)cc(C)nn2c1Cc1ccccc1-c1ccc(F)cc1 190 to 192 °C

// lookup melting point for Cc1c(C(=O)C(N)=O)c2c(OCC(=O)O)cc(-c3ccccc3)nn2c1Cc1ccccc1 253 to 254 °C (dec.)

---

assayed_system: recombinant human secretory phospholipase A2 (Homo sapiens, UniProt P14555)
Sequence (P14555 21-144): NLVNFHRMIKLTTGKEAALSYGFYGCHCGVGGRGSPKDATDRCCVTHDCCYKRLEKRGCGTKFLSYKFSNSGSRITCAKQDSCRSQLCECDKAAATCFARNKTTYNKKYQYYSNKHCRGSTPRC
test_description: Inhibition test of human secretory phospholipase A2 (chromogenic assay, 96 well microtiterplate)
condition_description: sPLA2 50 ng/well, 40° C., 30 minutes, OD 405 nm, substrate 1,2-bis(heptanoylthio)-1,2-dideoxy-sn-glycero-3-phospholylcholine
Description: Inhibition Test of Human Secretory Phospholipase A2 In order to identify and evaluate an inhibitor of recombinant human secretory phospholipase A2, the following chromogenic assay is utilized. The assay herein has been applied for high volume screening wherein 96 well microtiterplate is used. […] 5) Changes in absorbancy for 30 minutes are measured by a plate reader, and inhibition activity was calculated (OD: 405 nm). […]
pIC50: −log10 of the molar value.
outcome_measure: pIC50

Field: example entries. Status: answers known.
molecule=COC(=O)COc1cc(Cc2ccccc2)nn2c(Cc3ccccc3)c(C)c(C(=O)C(N)=O)c12 measured_number=7.59
molecule=CCc1c(C(=O)C(N)=O)c2c(OCC(=O)OC)cc(-c3ccc4c(c3)OCO4)nn2c1Cc1ccccc1 measured_number=7.10
molecule="CCc1c(C(=O)C(N)=O)c2c(OCC(=O)O)cc(-c3ccc(F)cc3)nn2c1Cc1ccccc1 [Compound I-63]" measured_number=8.22
molecule=CCc1c(C(=O)C(N)=O)c2c(OCC(=O)OC)cc(C)nn2c1Cc1ccc(F)cc1 measured_number=6.13

[P] COC(=O)COc1cc(CSC)nn2c(Cc3ccccc3)c(C)c(C(=O)C(N)=O)c12
[Q] CCc1c(C(=O)C(N)=O)c2c(OCC(=O)OCc3ccccc3)cc(CN3CCCC3)nn2c1Cc1ccccc1
I need your help: which of the pair P , Q has higher pIC50? Please reply using the label of the selected record. P
(P: 6.81, Q: 5.82)

[P] COC(=O)COc1cc(C)nn2c(Cc3ccccc3)c(C)c(C(=O)C(N)=O)c12
[Q] CCc1c(C(=O)C(N)=O)c2c(OCC(=O)O)cc(-c3ccc4c(c3)OCO4)nn2c1Cc1ccccc1
In the pair P and Q , the larger recorded pIC50 belongs to which? When you have decided, please share the label of that item. Q

[A] CCc1c(C(=O)C(N)=O)c2c(OCC(=O)OC)cc(COc3ccccc3)nn2c1Cc1ccccc1
[B] CCCc1cc(OCC(=O)O)c2c(C(=O)C(N)=O)c(C)c(Cc3ccccc3)n2n1
// max by pIC50 over [ A , B ] Give the chosen item's label as your response. B
(B: 8.10, A: 6.62)

[a] Cc1cc(OCC(=O)O)c2c(C(=O)C(N)=O)c(C)c(Cc3ccc(-c4ccccc4)cc3)n2n1
[b] CCc1c(C(=O)C(N)=O)c2c(OCC(=O)OC)cc(-c3ccc(F)cc3)nn2c1Cc1ccc(F)cc1
# returns the entry with the larger pIC50; inputs a and b Bench note: the answer is the label of the chosen record. a
